src = patent EP1207159A1

Target: human D4.2 receptor (Homo sapiens, UniProt P21917, DEL265-296)
Sequence (P21917 with tags, fused parts or gaps DEL265-296): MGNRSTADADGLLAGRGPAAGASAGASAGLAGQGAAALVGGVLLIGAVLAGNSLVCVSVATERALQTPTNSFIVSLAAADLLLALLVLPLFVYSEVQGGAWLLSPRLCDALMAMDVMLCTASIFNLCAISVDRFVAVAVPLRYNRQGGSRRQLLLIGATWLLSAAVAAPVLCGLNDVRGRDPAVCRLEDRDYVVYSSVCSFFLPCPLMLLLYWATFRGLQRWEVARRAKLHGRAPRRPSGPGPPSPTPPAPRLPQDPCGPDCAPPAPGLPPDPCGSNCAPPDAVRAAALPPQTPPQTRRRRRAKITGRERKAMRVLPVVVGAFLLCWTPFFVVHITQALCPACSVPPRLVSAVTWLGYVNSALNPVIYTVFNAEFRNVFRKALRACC
Assay: Dopamine D4 receptor binding assay ([3H]spiperone, CHO cell membranes)
Details: 50% inhibition of [3H]spiperone binding; CHO cell membranes expressing human D4.2 receptor; 27°C, 2 hours
Counter-ions that a name gives are not always drawn.
REPORTED PROPERTY: IC50

MOLECULE	REPORTED PROPERTY	VALUE
Fc1ccc(-c2ncncc2CCN2CCC(=Cc3cccc(F)c3)CC2)cc1	IC50	4.53 nM
CSc1ncc(CCN2CCC(=Cc3ccccc3F)CC2)c(-c2ccc(F)cc2)n1 [Compound A-14, dihydrochloride]	IC50	12.6 nM

Turning now to a further molecule:
Enquiry: Give the reported value of IC50 for this record: "Fc1ccc(C=C2CCN(CCc3cn[nH]c3-c3ccccc3)CC2)cc1"
Return: 1.12 nM
